- Tested on: pigweed
- protocol text: Test B pre-/postemergence herbicide test
- Type: in vivo, Amaranthus retroflexus
- experimental parameters: Postemergence, 500 g ai/ha; scale 0 (no effect) to 100 (complete control)
measure name: Pigweed plant response rating
Please respond with just the number, no unit label.

Lookup result for `C=CCNC(=O)c1ccc(F)c(NC(=O)c2cc(C(C)(C)C)nn2CC)c1` ; measured Pigweed plant response rating: 80

The compound listed as `CCNC(=S)c1cccc(NC(=O)c2nn(C(C)(C)C)nc2C)c1` has a reported Pigweed plant response rating of 70

Memo: `C=CCN(CC=C)C(=O)c1cccc(NC(=O)c2nn(C(C)(C)C)nc2CC)c1` , reported Pigweed plant response rating: 90

The compound identified as `C#CCNC(=O)c1ccc(F)c(NC(=O)c2nn(C(C)(C)C)nc2CC)c1` registered its Pigweed plant response rating at 40

Input `CCc1nn(C(C)(C)CC)nc1C(=O)Nc1cccc(OC(F)(F)F)c1` . Output Pigweed plant response rating: 70

###

Consider the following compounds; for each one, report its Plant response rating (0 to 100 scale), Velvetleaf.
- System: velvetleaf
- protocol text: Test B pre-/postemergence herbicide test
- Format: in vivo, Abutilon theophrasti
- experimental parameters: 125 g ai/ha; 0 is no effect, 100 is complete control; preemergence

The compound identified as CCN(CC)C(=O)c1cccc(NC(=O)c2cc(C(C)(C)C)nn2C)n1 [Compound 314] registered its Plant response rating (0 to 100 scale), Velvetleaf at 20

Sample C#CCNC(=O)c1ccc(F)c(NC(=O)c2nn(C(C)(C)C)nc2CC)c1 [Compound 389] ; Plant response rating (0 to 100 scale), Velvetleaf observed: 0

The value of Plant response rating (0 to 100 scale), Velvetleaf measured for the compound CCn1nc(C(C)(C)C)cc1C(=O)Nc1cccc(OS(=O)(=O)CC)c1 [Compound 408] turned out to be 50

Plant response rating (0 to 100 scale), Velvetleaf reading for CCc1nn(C(C)(C)CC)nc1C(=O)Nc1cccc(OC(F)(F)F)c1 [Compound 374] : 0

Input CCc1nn(C(C)(C)CC)nc1C(=O)Nc1cc(C(=O)N2CC=CC2)ccc1F [Compound 371] . Output Plant response rating (0 to 100 scale), Velvetleaf: 0

###

- Test system: barnyardgrass
- protocol text: Test C flooded paddy test
- Assay type: in vivo, Echinochloa crus-galli
- experimental parameters: 125 g ai/ha, scale 0 to 100 (0 no effect, 100 complete control)
Consider the following molecules; for each one, report its Barnyardgrass plant response rating.
Please state the value as a number alone, without comment.

barnyardgrass assay, molecule `CCNC(=O)c1ccc(F)c(NC(=O)c2sc(C(C)(C)C)nc2CC)c1` , recorded Barnyardgrass plant response rating = 0

Observed Barnyardgrass plant response rating on barnyardgrass, entry `CCNC(=O)c1cc(NC(=O)c2cc(C(C)(C)C)nn2CC)c(F)cc1F` , equals 0

Note to self: Barnyardgrass plant response rating of CCNC(=O)c1ccc(F)c(NC(=O)C2CC(C(C)(C)C)=NN2CC)c1 (racemic) with barnyardgrass was 65

# `CCNC(=O)c1ccc(F)c(NC(=O)c2cc(C(C)(C)C)nn2CC)n1` with barnyardgrass: Barnyardgrass plant response rating is 0

Result for `CCn1nc(C2(C)CC2)cc1C(=O)Nc1cc(C(=O)N2CC=CC2)ccc1F` , tested on barnyardgrass, Barnyardgrass plant response rating: 75

// assay barnyardgrass, entry `CCn1nc(C(C)(C)C)cc1C(=O)Nc1cccc(OS(=O)(=O)CC)c1` , Barnyardgrass plant response rating value = 45

Hey, barnyardgrass data for `CCn1nc(C(C)(C)C)cc1C(=O)Nc1ccnc(C(=O)N(C)C)c1` : Barnyardgrass plant response rating came out at 0

Measured Barnyardgrass plant response rating (barnyardgrass), entry `CCc1nn(C(C)C)nc1C(=O)Nc1cccc(C(=S)N(C)C)c1` : 20

Item: `CCc1nn(C(C)C)nc1C(=O)Nc1cccc(C(=O)N(C)CC)c1` | System: barnyardgrass | Barnyardgrass plant response rating: 50

###

- System: giant foxtail
- protocol text: Test B pre-/postemergence herbicide test
- Format: in vivo, Setaria faberi
- experimental parameters: preemergence, 125 g ai/ha; 0 to 100 scale, 0 is no effect, 100 is complete control
measure name: Plant response rating, Foxtail, Giant
The answer should be a number; do not append a unit.

Consider CCOC(=O)c1ccnc(NC(=O)c2cc(C(C)(C)C)nn2CC)c1 [Compound 157] . Its measured Plant response rating, Foxtail, Giant is 0

According to the records, this compound CCN(CC)C(=O)c1ccnc(NC(=O)c2cc(C(C)(C)C)nn2CC)c1 [Compound 153] displays Plant response rating, Foxtail, Giant of 0

Noted for CCn1nc(C(C)(C)C)cc1C(=O)Nc1cccc(C(=O)N(C)C)c1 [Compound 49] : its Plant response rating, Foxtail, Giant reads 0

Short answer for CCOC(=O)c1cc(NC(=O)c2cc(C(C)(C)C)nn2CC)ccc1OCC [Compound 95] : Plant response rating, Foxtail, Giant was 50

GET /value?item= CON=C(C)c1cccc(NC(=O)c2cc(C(C)(C)C)nn2C)c1 [Compound 106] &field=Plant response rating, Foxtail, Giant returns 10

The reported Plant response rating, Foxtail, Giant of the compound CCCn1nc(C(C)(C)C)cc1C(=O)Nc1cccc(C(C)=NO)c1 [Compound 113] was 10

Query CCn1nc(C(C)(C)C)cc1C(=O)Nc1cccc(C(=O)NC(C)C)c1 [Compound 51] yields Plant response rating, Foxtail, Giant of 100

In plain terms, C=CCn1nc(C(C)(C)C)cc1C(=O)Nc1cccc(C(=O)NCC)c1 [Compound 56] has a documented Plant response rating, Foxtail, Giant of 60

Kindly note the recorded Plant response rating, Foxtail, Giant for CC(C)(C)c1cc(C(=O)Nc2cccc(SC(F)(F)F)c2)n(CCF)n1 [Compound 132] , which is 30

Plant response rating, Foxtail, Giant measured on CCOC(=O)c1cc(NC(=O)c2cc(C(C)(C)C)nn2CC)ccc1F [Compound 89] = 0

// Plant response rating, Foxtail, Giant value for CCNC(=O)c1cccc(NC(=O)c2cc(C(C)(C)C)nn2CC(F)(F)F)c1 [Compound 31] : 60

Value of Plant response rating, Foxtail, Giant reported for the compound CCn1nc(C(C)(C)C)cc1C(=O)Nc1ccc(OC)c(C(=O)OC(C)C)c1 [Compound 101] is 20

###

- Test system: velvetleaf
- protocol text: Test B pre-/postemergence herbicide test
- Format: in vivo, Abutilon theophrasti
- experimental parameters: 125 g ai/ha; 0 = no effect, 100 = complete control; preemergence
measure name: Velvetleaf plant response rating (0 to 100 scale)

Per the record, CC(=NO)c1cccc(NC(=O)c2nn(C(C)(C)C)cc2C(F)(F)F)c1 [Compound 171] has Velvetleaf plant response rating (0 to 100 scale) of 0

The measured Velvetleaf plant response rating (0 to 100 scale) associated with CC(=NO)c1cccc(NC(=O)c2cn(C(C)C)nc2C)c1 [Compound 180] reads 0

// Velvetleaf plant response rating (0 to 100 scale) lookup, molecule = CCNC(=O)c1ccc(F)c(NC(=O)C2CC(C(C)(C)C)=NN2CC)c1 (racemic) [Compound 269] , result: 60

Sure, the documented Velvetleaf plant response rating (0 to 100 scale) for CCn1nc(C(C)(C)C)cc1C(=O)Nc1ccnc(C(=O)N2CC=CC2)c1 [Compound 282] is 10

Velvetleaf plant response rating (0 to 100 scale) for CCNC(=O)c1cc(NC(=O)c2cc(C(C)(C)C)nn2CC)ccn1 [Compound 257] is 0

###

- Test system: morningglory
- protocol text: Test B pre-/postemergence herbicide test
- Type: in vivo, Ipomoea coccinea
- experimental parameters: Ipomoea, post-emergence, 336 h, postemergence, 125 g ai/ha; visual rating, scale 0 (no effect) to 100 (complete control); read-out: Morningglory plant response rating
measure name: pest or weed control at 125 g/ha (%)
Write it as a number; the unit % goes unstated.

Record `CCOC(=O)c1cccc(NC(=O)c2cc(C(C)(C)C)nn2CC)c1` . Reported pest or weed control at 125 g/ha: 100

Record summary for `CCn1nc(C(C)(C)C)cc1C(=O)Nc1cc(C(=O)N(C)C)ccn1` : reported pest or weed control at 125 g/ha = 20

Measured pest or weed control at 125 g/ha, `CCn1nc(C(C)(C)C)cc1C(=O)Nc1cccc(C(=O)OCCF)c1` : 10

Lookup result for CCN1N=C(C(C)(C)C)CC1C(=O)Nc1cc(C(=O)N(C)C)ccc1F (stereo not shown) ; measured pest or weed control at 125 g/ha: 10

###

- Tested on: giant foxtail
- protocol text: Test B pre-/postemergence herbicide test
- Assay type: in vivo, Setaria faberi
- experimental parameters: postemergence, 125 g ai/ha; scale 0 to 100
Provide the recorded Foxtail, Giant plant response rating for the entries that follow.
Please give only the number in your answer, with no unit.

Please fill in: Foxtail, Giant plant response rating reported for `CCNC(=O)c1cccc(NC(=O)c2nn(C(C)(C)C)nc2C)n1` = 0

`C=CCNC(=O)c1cccc(NC(=O)c2nn(C(C)(C)C)nc2C)n1` yielded Foxtail, Giant plant response rating of 0

Lab note: `CCNC(=S)c1cccc(NC(=O)c2nn(C(C)(C)C)nc2C)c1` gave Foxtail, Giant plant response rating of 20

Record `CCN(C(C)=O)C(=O)c1ccc(F)c(NC(=O)c2cc(C(C)(C)C)nn2CC)c1` , field Foxtail, Giant plant response rating: 20

In plain terms, `CCc1nn(C(C)C)nc1C(=O)Nc1cccc(C(=S)N(C)C)c1` has a documented Foxtail, Giant plant response rating of 0

The molecule `CN(C)C(=O)c1cccc(NC(=O)c2nn(C(C)(C)C)nc2Br)c1` showed Foxtail, Giant plant response rating equal to 30
